# credit: the supplement of paper PMC10681739

subject-of-test: RUNX1 (UniProt Q01196)
Sequence (Q01196 whole entry): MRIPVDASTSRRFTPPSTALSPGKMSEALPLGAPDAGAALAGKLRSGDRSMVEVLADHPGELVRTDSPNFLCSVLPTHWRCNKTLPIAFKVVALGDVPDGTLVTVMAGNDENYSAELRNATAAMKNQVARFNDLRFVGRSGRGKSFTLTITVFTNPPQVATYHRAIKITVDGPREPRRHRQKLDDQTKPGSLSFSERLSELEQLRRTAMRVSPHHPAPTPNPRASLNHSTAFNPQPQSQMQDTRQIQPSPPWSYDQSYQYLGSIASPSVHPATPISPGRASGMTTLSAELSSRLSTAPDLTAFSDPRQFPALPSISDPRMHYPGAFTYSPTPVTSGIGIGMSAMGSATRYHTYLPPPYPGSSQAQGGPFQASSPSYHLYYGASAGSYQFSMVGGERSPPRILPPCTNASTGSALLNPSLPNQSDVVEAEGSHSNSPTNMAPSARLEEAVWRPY
procedure-summary: RUNX1 binding intensity (PBM fluorescence) in presence of ETS1, normalised to RUNX1-only experiment (arbitrary fluorescence units); higher = stronger binding;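 further: Full-length recombinant human ETS1 or RUNX1 bound to double-stranded 36-bp genomic probes on microarrays, detected by protein-specific primary antibody and Alexa488 secondary, spot fluorescence as median of four replicate spots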
experimental-context: RUNX1 concentration 2 nM; ETS1 concentration 25 nM
parameter: RUNX1 binding intensity
Write no unit; give the number alone.

# sequence GGCCTTCATTACACAGGATGCGGTTGAAATGCATCA ; its RUNX1 binding intensity = 1630

The sequence identified as TAGCCGTACGGAAATGTTTGTGGTTCTCTGCATCTA registered its RUNX1 binding intensity at 1230

# RUNX1 binding intensity (sequence: CCAACACAGGAAATAATTTGAAACCACAATCAGAAA ) is 3290

get_value(item= CGTTTCCTGTCTGGGACTGCGCCCACGCGGTCACGT , readout=RUNX1 binding intensity) returns 2450

Per the record, GTAGGGAAGACGGGATGTGGGTTTTCAGCCGTGGCC has RUNX1 binding intensity of 2520

// field: RUNX1 binding intensity; key: CCTCCCTGAGGGGGAAGTGGTTTTTGAGTCTGAGTC ; value = 1020

Recorded result, CTCTGAGCAGGAAGTGACAAAACCACGCAGGGCAGG , RUNX1 binding intensity: 1160

For TCGCACCGGAACCCCTTGGCGGATTATGTGGGTTCC the sequence record lists RUNX1 binding intensity as 862

Record GCCTCCTTCCTGGGCTCCTTTAAGAGGGTGGTAACG . Reported RUNX1 binding intensity: 1130

For this sequence ( GAAGGAAGTGGAGACAGTAAGGGGAAACCACAAACC ), measured RUNX1 binding intensity is 1190

Input GAACCACTTCCCTGAAACCATTTACCACATAAATCT . Output RUNX1 binding intensity: 2470

Input GTGGGGCAGGATGTGCTTGCCTGGCTGCGGTTGGAC . Output RUNX1 binding intensity: 2230

Lab note: ATGTTAACATCCTGCCATGAAAACCGCAAGAAGGGC gave RUNX1 binding intensity of 26000

Memo: CCAGAGGGCGGAAGTGGGAGCTGCGACCGCGCTCCC , reported RUNX1 binding intensity: 1880

Value of measured RUNX1 binding intensity for the entry CCCAGGCTTCCGGGTTGAATATGTGGGCTGAGGCGA : 1420

For this sequence ( CAGTCAAGAGGAAATTATAAACCACTGCCTCTTTGA ), measured RUNX1 binding intensity is 909

Just so you know, measured RUNX1 binding intensity for AGATTTTGTCTTCCTGTTGTGGCAACATCTGTAGAA came out at 1520

Summary for this sequence, CGCCCACCACTTCCTGCTGGCGGTCGGCAAGCGTTG : RUNX1 binding intensity is 8670

Sure, the documented RUNX1 binding intensity for GTTGCCCCACTTCCTGCCAGTGGTTTTTGGTTGGCC is 4040

get_value(item= ACCTCAAGCCCAGGATGTGGTTTGGCCACTATTGAG , readout=RUNX1 binding intensity) returns 1680

response.value for AGGTTCGTGGCAGGAAAGTTTGTGGCAGCAAAGCCT (field: RUNX1 binding intensity) = 1100

Consider AAGAAAAAGGGAGGATGTGGTTTAGCAAAAGCACTG . Its measured RUNX1 binding intensity is 2230

RUNX1 binding intensity reading for GTACGACAGCGGGTTCCGGTGACCACGAAGGCGGCA : 1180

Per the records, this sequence ( TTGTTCCACCCCCGCGGAAACCGCTGCTCGCTGGGC ) has RUNX1 binding intensity equal to 965

Just so you know, measured RUNX1 binding intensity for TTTATCATGAATGCAGGATGTGGGCAAACTCATGAC came out at 1140
